target system: Recombinant Cat D (Cathepsin D) (Homo sapiens (Human))
Sequence (P07339 65-412, species assumed): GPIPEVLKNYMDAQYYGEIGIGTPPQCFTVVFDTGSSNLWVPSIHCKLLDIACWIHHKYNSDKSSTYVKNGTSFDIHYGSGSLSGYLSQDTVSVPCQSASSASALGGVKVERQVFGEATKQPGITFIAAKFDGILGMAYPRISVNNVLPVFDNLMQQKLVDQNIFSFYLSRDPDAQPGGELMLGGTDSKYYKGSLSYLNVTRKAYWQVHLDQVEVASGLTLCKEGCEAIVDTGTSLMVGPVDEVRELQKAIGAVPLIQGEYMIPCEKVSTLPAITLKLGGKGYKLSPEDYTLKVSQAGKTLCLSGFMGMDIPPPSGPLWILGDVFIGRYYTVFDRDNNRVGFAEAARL
assay details: In vitro enzymatic Cathepsin D (Cat D) FRET assay
particulars: read-out: CatD IC50
pIC50: −log10 of the molar value.
property name: pIC50

- compound: "COc1cnc2c(Nc3cc(Cl)c(F)c([C@@]4(CF)N=C(N)O[C@@H]5C[C@@H]54)c3)nccc2n1"
  target system: "Recombinant Cat D (Cathepsin D) (Homo sapiens (Human))"
  reported: 3.14
- compound: "COc1cc(Cl)cnc1C(=O)Nc1ccc(Cl)c([C@@]2(CF)N=C(N)O[C@@H]3C[C@@H]32)c1"
  target system: "Recombinant Cat D (Cathepsin D) (Homo sapiens (Human))"
  reported: 3.08
- compound: "N#Cc1cnc2c(c1)CCC[C@@H]2Nc1ccc(F)c([C@@]2(C(F)F)N=C(N)O[C@@H]3C[C@@H]32)c1 (mixture of isomers)"
  target system: "Recombinant Cat D (Cathepsin D) (Homo sapiens (Human))"
  reported: 3.33
- compound: "NC1=N[C@@](c2cc(NC(=O)c3cnc(Cl)cn3)ccc2F)(C(F)F)[C@H]2C[C@H]2O1"
  target system: "Recombinant Cat D (Cathepsin D) (Homo sapiens (Human))"
  reported: 3.35
- compound: "C#CCOc1cnc(C(=O)Nc2cc(F)c(Cl)c([C@]3(CF)N=C(N)O[C@H]4C[C@H]43)c2)cn1 (racemic)"
  target system: "Recombinant Cat D (Cathepsin D) (Homo sapiens (Human))"
  reported: 4.06
- compound: "C[C@@]1(c2cc(NC(=O)c3ccc(Cl)cn3)cnc2F)N=C(N)O[C@H]2C[C@H]21"
  target system: "Recombinant Cat D (Cathepsin D) (Homo sapiens (Human))"
  reported: 3.09
- compound: "N#Cc1ccc2c(c1)OCC[C@@H]2Nc1ccc(F)c([C@@]2(C(F)F)N=C(N)O[C@@H]3C[C@@H]32)c1 (mixture of isomers)"
  target system: "Recombinant Cat D (Cathepsin D) (Homo sapiens (Human))"
  reported: 3.69

* * *

Measurement record for Beta Secretase enzyme (BACE) (Homo sapiens (Human), UniProt P56817); quantity recorded: IC50.

- molecule: "C[C@@]1(c2cc(NC(=O)c3ccc(Cl)cn3)cnc2F)N=C(N)O[C@H]2C[C@H]21 [Example 333]"
  IC50 / nM: 130
- molecule: "N#Cc1ccc2c(c1)OCC[C@@H]2Nc1ccc(F)c([C@@]2(C(F)F)N=C(N)O[C@@H]3C[C@@H]32)c1 (mixture of isomers) [Example 383]"
  IC50 / nM: 968
- molecule: "N#Cc1cnc2c(c1)CC[C@@H]2Nc1ccc(F)c([C@@]2(C(F)F)N=C(N)O[C@@H]3C[C@@H]32)c1 [Example 404]"
  IC50 / nM: 291
- molecule: "C#CCOc1cnc(C(=O)Nc2cc(F)c(Cl)c([C@]3(CF)N=C(N)O[C@H]4C[C@H]43)c2)cn1 (racemic) [Example 140]"
  IC50 / nM: 6
- molecule: "N#Cc1cnc2c(c1)CCC[C@@H]2Nc1ccc(F)c([C@@]2(C(F)F)N=C(N)O[C@@H]3C[C@@H]32)c1 (mixture of isomers) [Example 403]"
  IC50 / nM: 2860
